Each recorded value in this set is attributed to patent US20230256092A1.

Below, each of the binders is paired with its reported IC50 ratio (WT IC50/mutant IC50) value.
- System under test: human CCR8 (human) (UniProt P51685)
- Experimental protocol: cell-based or functional assay
Could you keep your reply to the number by itself?

Worked examples, 2 binders total:
h10A11 (IGKV4-1/IGHV3-73 Y58F) (antibody, name in Kabat numbering, V domains shown) VH: EVQLVESGGGLVQPGGSLKLSCAASGFAFNTYALYWVRQASGKGLEWVGRIRSKSNNYATFYADSVKDRFTISRDDSKNTAYLQMNSLKTEDTAVYYCTRARFYYSDYGYAMDYWGQGTLVTVSS VL: DIVMTQSPDSLAVSLGERATINCRSSKSLLHSNGNTYLYWYQQKPGQPPKLLIYRMSNLASGVPDRFSGSGSGTDFTLTISSLQAEDVAVYYCMQHLEYPLTFGQGTKLEIKR ... 0.5
h10A11 (IGKV4-1/IGHV3-73 Y99F) (antibody, name in Kabat numbering, V domains shown) VH: EVQLVESGGGLVQPGGSLKLSCAASGFAFNTYALYWVRQASGKGLEWVGRIRSKSNNYATYYADSVKDRFTISRDDSKNTAYLQMNSLKTEDTAVYYCTRARFYFSDYGYAMDYWGQGTLVTVSS VL: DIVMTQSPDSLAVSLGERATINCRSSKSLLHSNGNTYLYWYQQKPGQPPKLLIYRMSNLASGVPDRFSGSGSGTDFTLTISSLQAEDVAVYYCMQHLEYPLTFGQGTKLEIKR ... 0.8

We now examine a further binder.
For the binder h10A11 (IGKV4-1/IGHV3-73 S52aT) (antibody, name in Kabat numbering, V domains shown) VH: EVQLVESGGGLVQPGGSLKLSCAASGFAFNTYALYWVRQASGKGLEWVGRIRTKSNNYATYYADSVKDRFTISRDDSKNTAYLQMNSLKTEDTAVYYCTRARFYYSDYGYAMDYWGQGTLVTVSS VL: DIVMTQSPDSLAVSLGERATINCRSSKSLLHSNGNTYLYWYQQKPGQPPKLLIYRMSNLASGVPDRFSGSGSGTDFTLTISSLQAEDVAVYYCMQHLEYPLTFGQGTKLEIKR , give its measured IC50 ratio (WT IC50/mutant IC50) value.
0.22
